- assay_method_text: yeast AGP1-GFP level changes, GLN3 branch – cell-based, multiplex flow cytometry, S. cerevisiae, primary screen (AID 1887);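 note: AGP1-GFP fusion strain of S. cerevisiae within a five-strain barcoded multiplex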
- recorded_conditions: 3 h, at 10 µM, stronger effect = higher value
Results filed as inconclusive are left out.
property_measured: GFP response, % of DMSO (%)
Note: unit % is implicit; provide only the numeric part.

- compound: "COc1ccc(CNC(=O)c2c(O)c3cccc4c3n(c2=O)CCC4)cc1"
  unit_tag: "%"
  GFP response, % of DMSO: 99.4
- compound: "O=C(NCc1ccc(N2CCCC2=O)cc1)c1ccc(F)cc1"
  unit_tag: "%"
  GFP response, % of DMSO: 116
- compound: "COC(=O)c1ccc(-c2ncc(-c3cccc4ccccc34)o2)cc1"
  unit_tag: "%"
  GFP response, % of DMSO: 109
- compound: "O=C(CC(NC(=O)OCc1ccccc1)C(=O)O)OCc1ccccc1 (stereo not given)"
  unit_tag: "%"
  GFP response, % of DMSO: 99.5

Now look at this one.
Just so you know, measured GFP response, % of DMSO for COc1ccccc1NC(=O)C12CCC(C)(C(=O)C1)C2(C)C (stereo not given) came out at 109

----------
Reported GTP binding, percent of control values follow for various compounds
- system_name: GTPase HRas (Homo sapiens) (UniProt P01112)
- Sequence (P01112 whole entry, looked up): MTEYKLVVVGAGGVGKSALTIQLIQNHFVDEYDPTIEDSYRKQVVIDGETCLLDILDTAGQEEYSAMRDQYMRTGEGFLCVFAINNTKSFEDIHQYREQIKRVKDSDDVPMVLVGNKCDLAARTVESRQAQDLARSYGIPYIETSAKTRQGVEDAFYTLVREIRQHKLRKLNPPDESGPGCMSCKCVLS
- assay_method_text: Ras wt fluorescent GTP loading blockade – biochemical, wildtype, multiplex bead flow cytometry, dose response (AID 1335)
- recorded_conditions: bead-based flow cytometry, Bodipy-GTP binding to GST-Ras; at 100 µM (top of the series) unless noted
Write the answer as a number in %, unit excluded.

Quick note, GTP binding, percent of control for "COc1ccc(-c2nn3c(-c4ccccn4)nnc3s2)cc1OC" landed at 52.9

Summary for this compound, "CC(C)(C)C(=O)C#Cc1ccccc1" : GTP binding, percent of control is 203

----------
- assay_method_text: reduced mouse 2C T cell binding to pMHC/ICAM-1 vesicles – MLPCN validation set, flow cytometry, LFA-1/ICAM-1 modulator project, pilot screen (AID 2523);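 note: mean PE anti-B7-1 fluorescence of CD8+ cells relative to row control; 100% = QL9-loaded vesicles with DMSO vehicle in the same plate row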
- recorded_conditions: 2C mouse CD8+ T cells, at 7 µM, stronger effect = lower value
property_measured: vesicle binding response (%)
Answer with a number only, understood to be in %.

Lab note: Cc1cc(=O)oc2cc(OC(C)C(=O)NCC3CCCO3)ccc12 (stereo not given) gave vesicle binding response of 554

CCN1C(=O)C(CC(=O)Nc2ccc(OC)cc2)N(CCc2ccc(F)cc2)C1=S (stereo not given) has a reported vesicle binding response of 292

Record summary for "CC(=O)N(C(C)=O)c1nc2nc(C)cc(C)n2n1" : reported vesicle binding response = 236

vesicle binding response recorded for this compound, CC1(C)C(=O)OC(c2cccs2)C2(CCCCC2)C1=O (stereo not given) , is 228

Record "CCc1cc(/C(Cc2ccccn2)=N\O)c(O)cc1O" . Reported vesicle binding response: 51.2

Record summary for "COc1cccc(=O)c2c(C)n(CC(=O)c3ccccc3)c(C)c12" : reported vesicle binding response = 203

Quick note, vesicle binding response for "CCCCN1C[C@H](O)[C@@H](O)[C@H](O)[C@H]1CO" landed at 203

The reported value for O=C(CC(NC(=O)OCc1ccccc1)C(=O)O)OCc1ccccc1 (stereo not given) in terms of vesicle binding response is 160

The recorded vesicle binding response for CC(C)(C)C(=O)Nc1cccc(OC(F)(F)C(F)Cl)c1 (stereo not given) is 212

// field: vesicle binding response; key: "CCN(CC)c1ccc([C@H]2[C@@H]3CCCC[C@]3(O)CCN2CC(=O)NCc2ccco2)cc1" ; value = 190

Lab book: vesicle binding response of "O=C(O)C1CCN(C(=O)COc2ccc3c4c(c(=O)oc3c2)CCC4)CC1" noted as 420

Entry under test: "O=C(Nc1ccc(Cl)cn1)Nc1ccccc1Cl" . Its vesicle binding response was 144

vesicle binding response for COc1ccc2c(c1OC)C(C1c3c(cc4c(c3OC)OCO4)CCN1C)OC2=O (stereo not given) is 54.2

// sample COc1ccc2[nH]cc(C3N4CC5(C)CN3CC(C)(C4)C5=O)c2c1 (stereo not given) , its vesicle binding response was 138

----------
- system_name: Beta-adrenergic receptor kinase 1 (Homo sapiens) (UniProt P25098)
- Sequence (P25098 whole entry, looked up): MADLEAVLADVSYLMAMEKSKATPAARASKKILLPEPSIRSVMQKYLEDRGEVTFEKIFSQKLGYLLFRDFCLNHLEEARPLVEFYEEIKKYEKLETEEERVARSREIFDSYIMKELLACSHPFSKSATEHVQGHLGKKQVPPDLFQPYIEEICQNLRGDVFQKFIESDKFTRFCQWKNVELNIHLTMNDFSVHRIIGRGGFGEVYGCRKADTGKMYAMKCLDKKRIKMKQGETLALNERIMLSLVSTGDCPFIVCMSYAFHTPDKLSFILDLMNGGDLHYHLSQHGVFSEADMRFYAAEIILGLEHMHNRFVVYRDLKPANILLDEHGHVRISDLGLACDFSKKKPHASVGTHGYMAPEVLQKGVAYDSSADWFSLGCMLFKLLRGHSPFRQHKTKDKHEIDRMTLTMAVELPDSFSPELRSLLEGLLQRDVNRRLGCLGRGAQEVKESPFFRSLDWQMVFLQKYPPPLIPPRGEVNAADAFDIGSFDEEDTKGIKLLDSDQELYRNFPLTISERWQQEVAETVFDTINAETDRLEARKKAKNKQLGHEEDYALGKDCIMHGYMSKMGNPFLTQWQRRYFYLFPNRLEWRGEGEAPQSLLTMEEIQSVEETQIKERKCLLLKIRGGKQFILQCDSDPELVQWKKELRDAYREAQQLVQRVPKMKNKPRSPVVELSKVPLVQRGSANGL
- assay_method_text: GRK2 binders displacing RNA aptamer, biochemical, validation, human GRK2, bead flow cytometry (AID 488806)
- recorded_conditions: bead-bound GRK2, FAM-aptamer displacement, at 10 µM, stronger effect = higher value
The source made the active and inactive calls.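 Rule for the calls: active = aptamer binding inhibition above 30%, about 3 SD of noise from non-fluorescent compounds; inactive = inhibition at or below 30%.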
Below, each entry is listed alongside its reported aptamer binding inhibition.

Reference set (2 entries):
- compound: "N=c1nc(N2CCCCC2)cc(N)n1O"
  endpoint_value: "2% (inactive)"
- compound: "Cc1ccsc1/C=C/C1=NCCCN1C"
  endpoint_value: "1% (inactive)"

Record "O=C(COc1ccc2ccc(=O)oc2c1)c1ccccc1" has Beta-adrenergic receptor kinase 1 (Homo sapiens) (UniProt P25098) aptamer binding inhibition equal to 1% (inactive)

----------
- system_name: Beta-2 adrenergic receptor (Homo sapiens) (UniProt P07550)
- Sequence (P07550 whole entry, looked up): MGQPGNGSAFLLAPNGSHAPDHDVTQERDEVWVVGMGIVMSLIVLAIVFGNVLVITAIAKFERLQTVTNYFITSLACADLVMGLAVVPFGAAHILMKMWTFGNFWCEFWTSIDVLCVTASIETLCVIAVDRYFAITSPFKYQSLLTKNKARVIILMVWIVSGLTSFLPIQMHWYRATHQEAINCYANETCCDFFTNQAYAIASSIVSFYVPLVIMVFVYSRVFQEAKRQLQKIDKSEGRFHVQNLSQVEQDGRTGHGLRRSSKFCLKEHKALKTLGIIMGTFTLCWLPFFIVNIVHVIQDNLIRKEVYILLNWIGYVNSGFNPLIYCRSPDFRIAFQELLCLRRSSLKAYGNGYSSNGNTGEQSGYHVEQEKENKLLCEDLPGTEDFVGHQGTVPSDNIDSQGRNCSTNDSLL
- assay_method_text: agonist-induced loss of surface beta2AR – cell-based, FAP fluorogen, flow cytometry, validation set, pilot screen (AID 504459);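 note: agonist-driven loss of surface beta2AR via internalization measured by FAP dye flow cytometry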
- recorded_conditions: Am2.2-beta2AR cells, at 10 µM, stronger effect = higher value
Peptide text beside a SMILES is read from it.
Here the recorded response is given for each entry.
Numbers only here, please. The scale is %.

- compound: "CC(C)=CCC/C(C)=C/CC/C(C)=C/CC/C(C)=C/CC1=C(C)C(=O)c2ccccc2C1=O"
  response, %: -16
- compound: "CC(=O)NC(CC(C)C)C(=O)NC(Cc1ccccc1)C(N)=O (stereo not drawn) (Ac-Leu-Phe-NH2; configuration not given here)"
  response, %: 4.73
- compound: "CC(C)(C)OC(=O)COc1cc(OCC(=O)OC(C)(C)C)c2c(=O)cc(-c3ccccc3)oc2c1"
  response, %: -17
- compound: "CC(=O)OCC#CCSc1nc2ccccc2n1C"
  response, %: 7.19
- compound: "COc1ccc(C(=O)NCCC2=CCCCC2)cc1[N+](=O)[O-]"
  response, %: -5.02
- compound: "CC(=O)N[C@@H](CS)C(=O)O"
  response, %: 7.69
- compound: "O=C(c1ccc(Cl)cc1)C1CCCN(C(=O)/C=C/c2ccccn2)C1 (stereo not given)"
  response, %: -44.8
- compound: "CC1(C)CC(c2csc(N)n2)CCO1 (stereo not given)"
  response, %: -0.12

Response field response (Beta-2 adrenergic receptor (Homo sapiens) (UniProt P07550)) for item "Cc1ccc(C(=O)COC(=O)c2cnccn2)cc1[N+](=O)[O-]" : -3.42

response of "C/C=C(/C(=C/C)c1ccc(O)cc1)c1ccc(O)cc1" , assay on Beta-2 adrenergic receptor (Homo sapiens) (UniProt P07550), is -4.98

----------
- system_name: ATP-binding cassette sub-family B member 6 (Homo sapiens)
- assay_method_text: blockers of ABCB6-driven porphyrin uptake – K562-ABCB6 cells, flow cytometry, validation set, pilot screen (AID 588550);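 note: 0% = DMSO wells and 100% = benzethonium chloride 70 µM positive control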
- recorded_conditions: K562-ABCB6 porphyrin accumulation, 1 h, at 10 µM, stronger effect = higher value
property_measured: inhibition (%)
Give the value, in units of %, as a plain number.

Use these answered entries as a reference point.
- compound: "Cc1ccc2ncnc(NCCCCCC(=O)O)c2c1"
  system_name: "ATP-binding cassette sub-family B member 6 (Homo sapiens)"
  unit_tag: "%"
  endpoint_value: 4
- compound: "Cc1ccc(C(=O)Nc2ccc(O)cc2C(=O)O)cc1C"
  system_name: "ATP-binding cassette sub-family B member 6 (Homo sapiens)"
  unit_tag: "%"
  endpoint_value: -4
- compound: "COC(=O)c1ccc(C(=O)OC)c(NC(=O)C(C)C)c1"
  system_name: "ATP-binding cassette sub-family B member 6 (Homo sapiens)"
  unit_tag: "%"
  endpoint_value: -3
- compound: "COCCOC(=O)C1=C(N)OC2=C(C(=O)CCC2)C1c1cccnc1 (configuration not stated)"
  system_name: "ATP-binding cassette sub-family B member 6 (Homo sapiens)"
  unit_tag: "%"
  endpoint_value: -4
- compound: "O=C(COc1ccc2ccc(=O)oc2c1)c1ccccc1"
  system_name: "ATP-binding cassette sub-family B member 6 (Homo sapiens)"
  unit_tag: "%"
  endpoint_value: -10
- compound: "O=C(O)C(O)c1ccccc1 (configuration not stated)"
  system_name: "ATP-binding cassette sub-family B member 6 (Homo sapiens)"
  unit_tag: "%"
  endpoint_value: 12

# evaluate next
Value of measured inhibition for the entry "c1ccc(-c2ccccn2)nc1" : 55

----------
// values below are reported percent of DMSO control GFP
- assay_method_text: rapamycin-like changes in RPL19A-GFP expression – cell-based, S. cerevisiae, multiplex flow cytometry, primary screen (AID 1862);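 note: lower values mimic rapamycin by blocking the RPL19A rise seen in DMSO cells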
- recorded_conditions: S. cerevisiae RPL19A-GFP strain, flow cytometry fluorescence, 3 h; at 10 µM; stronger effect = lower value
Records with an inconclusive call do not appear.
// units = %; emit number, no label

Given item CCOc1ccc(N2C(=O)CC(NCCNc3ccc([N+](=O)[O-])cn3)C2=O)cc1 (stereo unspecified) , the value recorded as its percent of DMSO control GFP is 103

Notebook: "COC(=O)c1sccc1NC(=O)Nc1ccccc1F" , percent of DMSO control GFP read as 100

O=C(c1cccc2ccccc12)C1CCCN(C(=O)CCN2CCCO2)C1 (stereo unspecified) has a reported percent of DMSO control GFP of 104

Value of percent of DMSO control GFP reported for the molecule "CCNC(=S)N1CCN(CCN2C(=O)c3cccc4cccc(c34)C2=O)CC1" is 103

Briefly, percent of DMSO control GFP measured for C1CCC(C(CC2CCCCN2)C2CCCCC2)CC1 (stereo unspecified) : 97.9

Record CCCNC(C)C(=O)Nc1ccccc1C (stereo unspecified) , field percent of DMSO control GFP: 100

# molecule CC(=O)N(CCC1(c2ccc(C)cc2)CCOC(C(C)C)C1)Cc1ccco1 (stereo unspecified) ; its percent of DMSO control GFP = 93.9

For this molecule ( COc1ccc2cc(C3(C)NC(=O)NC3=O)ccc2c1 (stereo unspecified) ), measured percent of DMSO control GFP is 95.8

The molecule O=C1CC(c2ccc(OCCCCCOc3ccc(C4CC(=O)NC4=O)cc3)cc2)C(=O)N1 (stereo unspecified) showed percent of DMSO control GFP equal to 105

The molecule identified as "COc1ccc(-c2c3c(=O)n(C)c(=O)n(C)c3cn2C2CCCCC2)cc1" registered its percent of DMSO control GFP at 95.2

Just so you know, measured percent of DMSO control GFP for COc1ccc(NC(=O)CC2C(=O)N(C)C(=S)N2Cc2ccncc2)cc1 (stereo unspecified) came out at 88

Entry "Nc1nc(Cl)nc2c1ncn2[C@H]1C[C@H](O)[C@@H](CO)O1" ; percent of DMSO control GFP = 99.2

Entry under test: "CCCCN(CCCC)CCCOC(=O)c1ccc(N)cc1" . Its percent of DMSO control GFP was 92
